Listed next: entries and their corresponding protein stability index.
B1: MED27 (parent)
chain: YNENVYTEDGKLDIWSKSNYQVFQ

# Variants of: B1
# MEASUREMENT_PROTOCOL: protein stability index of a GFP-peptide fusion (GPS, HEK-293T) (PSI 1-6); higher = more stable;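 further: lentivirally expressed fusions sorted by FACS into six bins by GFP to DsRed ratio, PSI derived from sequencing read proportions per bin multiplied by bin number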
# TEST_CONDITIONS: c terminus: a fixed tail appended
API doc: respond with a numeric literal and nothing else, no unit.

// known answers, use as guide
* YNENVYFEDGKLDIWSKSNYQVFQ | 2.13
* YNENVYTRDGKLDIWSKSNYQVFQ | 1.55
* YNENVYTEDGHLDIWSKSNYQVFQ | 2.2
* YNENVYTEDGKLDIWKKSNYQVFQ | 2.04
* YNENVYTEEGKLDIWSKSNYQVFQ | 2.37
* YNENVYTEDGKLDIWSKSNYQVFT | 2.23
* YNDNVYTEDGKLDIWSKSNYQVFQ | 1.48
* YNENVPTEDGKLDIWSKSNYQVFQ | 2.68
* YFENVYTEDGKLDIWSKSNYQVFQ | 2.26
* YNENVYTEDGKLHIWSKSNYQVFQ | 2.44

Req: Any idea what its protein stability index is? The variant is "QNENVYTEDGKLDIWSKSNYQVFQ"
Resp: 3.74

Req: Field entry: "YNENVYTEDGKLDIWSKSNYQFFQ"
Resp: 2.79

Req: Field entry: "YNENVYTEDGKLDIWLKSNYQVFQ"
Resp: 1.82

Req: Field entry: "YNEDVYTEDGKLDIWSKSNYQVFQ"
Resp: 2.21

Req: Field entry: "YNENVYTEDGKLDIGSKSNYQVFQ"
Resp: 4.19

Req: Field entry: "YNENVYTEDGKLDIWSKSNYDVFQ"
Resp: 2.41

Req: Field entry: "YNENVYTEDGKLDIWSKSNYQVIQ"
Resp: 2.43

Req: Field entry: "YNENVYTEDGKLDIWSKSNYCVFQ"
Resp: 2.01

Req: Field entry: "YNENVYTEDGDLDIWSKSNYQVFQ"
Resp: 3.48

Req: Field entry: "YYENVYTEDGKLDIWSKSNYQVFQ"
Resp: 2.1

Req: Field entry: "YNENVYTEDGKLDSWSKSNYQVFQ"
Resp: 3.23

Req: Field entry: "YNENVYSEDGKLDIWSKSNYQVFQ"
Resp: 1.95

Req: Field entry: "YNENVYTEQGKLDIWSKSNYQVFQ"
Resp: 1.55
